Origin of the recorded values: ChEMBL document CHEMBL3808393

# system-name: Kappa-type opioid receptor (Homo sapiens, UniProt P41145)
# Sequence (P41145 whole entry): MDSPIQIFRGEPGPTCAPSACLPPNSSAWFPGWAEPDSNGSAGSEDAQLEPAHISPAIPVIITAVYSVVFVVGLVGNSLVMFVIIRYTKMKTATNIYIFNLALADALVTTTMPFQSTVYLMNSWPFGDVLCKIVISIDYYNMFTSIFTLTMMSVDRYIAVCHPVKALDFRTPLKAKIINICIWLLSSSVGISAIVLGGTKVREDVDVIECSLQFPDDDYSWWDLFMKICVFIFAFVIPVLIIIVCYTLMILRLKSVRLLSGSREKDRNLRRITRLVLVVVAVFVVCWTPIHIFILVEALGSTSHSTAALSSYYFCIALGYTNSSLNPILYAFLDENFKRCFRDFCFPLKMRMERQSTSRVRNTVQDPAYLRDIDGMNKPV
# measurement-protocol: Displacement of [3H]U69593 from human KOR expressed in CHO cell membranes at 1 uM after 60 mins
Could you please report measured inhibition for the items listed next?

The following compounds have reported results that may help.
COc1cccc(-c2ccc3c(c2)CC[C@H](CN(C)C)[C@@]3(O)c2cccc(O)c2)c1 :: 15%
COc1ccccc1-c1ccc2c(c1)CC[C@H](CN(C)C)[C@@]2(O)c1cccc(O)c1 :: 17.7%
COc1cccc([C@@]2(O)c3ccc(-c4ccccc4C)cc3CC[C@@H]2CN(C)C)c1 :: 16.2%
CN(C)C[C@H]1CCc2cc(-c3ccc(Cl)cc3)ccc2[C@]1(O)c1cccc(O)c1 :: 8.9%

Proceeding to the next compound to report its inhibition.
input: GET /values?readout=inhibition&system=Kappa-type opioid receptor (Homo sapiens, UniProt P41145)&item= COc1cccc([C@@]2(O)c3ccc(-c4ccccc4)cc3CC[C@@H]2CN(C)C)c1
output: 37%

----------
# system-name: Kappa-type opioid receptor (Homo sapiens)
# measurement-protocol: Agonist activity at human KOR expressed in CHO cell membranes after 60 mins by [35S]GTP-gamma-S binding assay
quantity-kind: EC50 (µM)
One number for each entry, in µM.

input: Param item = CN(C)C[C@H]1CCc2cc(-c3ccccc3)ccc2[C@]1(O)c1cccc(O)c1 ; retrieve measured EC50.
output: 0.58

----------
# system-name: Delta-type opioid receptor (Homo sapiens, UniProt P41143)
# Sequence (P41143 whole entry): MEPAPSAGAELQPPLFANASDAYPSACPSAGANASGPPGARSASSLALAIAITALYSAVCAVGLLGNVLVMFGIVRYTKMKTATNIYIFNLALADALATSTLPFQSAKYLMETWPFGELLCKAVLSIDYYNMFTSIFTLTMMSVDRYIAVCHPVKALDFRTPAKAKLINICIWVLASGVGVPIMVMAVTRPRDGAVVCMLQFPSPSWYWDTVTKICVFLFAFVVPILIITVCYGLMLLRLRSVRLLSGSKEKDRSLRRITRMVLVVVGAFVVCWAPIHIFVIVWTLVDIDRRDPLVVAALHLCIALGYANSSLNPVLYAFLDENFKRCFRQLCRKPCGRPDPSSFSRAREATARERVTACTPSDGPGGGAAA
# measurement-protocol: Displacement of [3H]DPDPE from human DOR expressed in CHO cell membranes at 1 uM after 60 mins
inhibition vs 20%: at or above is MET, below is NOT MET.

COc1ccc(-c2ccc3c(c2)CC[C@H](CN(C)C)[C@@]3(O)c2cccc(O)c2)cc1 :: MET
COc1cccc(-c2ccc3c(c2)CC[C@H](CN(C)C)[C@@]3(O)c2cccc(O)c2)c1 :: MET
COc1cccc([C@@]2(O)c3ccc(-c4ccccc4OC)cc3CC[C@@H]2CN(C)C)c1 :: MET
CN(C)C[C@H]1CCc2cc(-c3ccccc3)ccc2[C@]1(O)c1cccc(O)c1 :: MET

input: Confirm if inhibition reported for the compound COc1cccc([C@@]2(O)c3ccc(-c4ccccc4C)cc3CC[C@@H]2CN(C)C)c1 is 20% or above.
output: NOT MET

input: For this compound, is measured inhibition 20% or higher? CN(C)C[C@H]1CCc2cc(-c3ccc(Cl)cc3)ccc2[C@]1(O)c1cccc(O)c1
output: NOT MET

----------
# system-name: Delta-type opioid receptor (Homo sapiens, UniProt P41143)
# measurement-protocol: Agonist activity at human DOR expressed in CHO cell membranes after 60 mins by [35S]GTP-gamma-S binding assay
# Met = EC50 below 0.9 µM (exclusive); Not met = EC50 at/above 0.9 µM

COc1ccccc1-c1ccc2c(c1)CCC(CN(C)C)C2(O)c1cccc(O)c1 (single isomer, unassigned; (-)) :: Met
CN(C)C[C@H]1CCc2cc(-c3ccccc3F)ccc2[C@]1(O)c1cccc(O)c1 :: Not met
Cc1ccccc1-c1ccc2c(c1)CC[C@H](CN(C)C)[C@@]2(O)c1cccc(O)c1 :: Met
CN(C)C[C@H]1CCc2cc(-c3ccccc3OC(F)(F)F)ccc2[C@]1(O)c1cccc(O)c1 :: Not met
CN(C)C[C@H]1CCc2cc(-c3ccccc3Cl)ccc2[C@]1(O)c1cccc(O)c1 :: Not met

Next, consider the following compound.
input: Dear reviewer, please state whether COc1ccccc1-c1ccc2c(c1)CC[C@H](CN(C)C)[C@@]2(O)c1cccc(O)c1 has EC50 strictly beneath 0.9 µM.
output: Met

----------
# system-name: Kappa-type opioid receptor (Homo sapiens, UniProt P41145)
# measurement-protocol: Displacement of [3H]U69593 from human KOR expressed in CHO cell membranes after 60 mins
# experimental-setup: cho
quantity-kind: Ki

input: Ki lookup needed for COc1ccccc1-c1ccc2c(c1)CCC(CN(C)C)C2(O)c1cccc(O)c1 (single isomer, unassigned; (+)) , thanks.
output: > 10 µM

----------
Please go through the items and note down their pKi.
# system-name: Delta-type opioid receptor (Homo sapiens, UniProt P41143)
# measurement-protocol: Displacement of [3H]DPDPE from human DOR expressed in CHO cell membranes after 60 mins
Numbers only, as −log10 of the molar value.

// known answers, use as guide
CN(C)C[C@H]1CCc2cc(-c3ccccc3F)ccc2[C@]1(O)c1cccc(O)c1 :: 6.14
COc1ccccc1-c1ccc2c(c1)CCC(CN(C)C)C2(O)c1cccc(O)c1 (single isomer, unassigned; (-)) :: 8.57
CN(C)C[C@H]1CCc2cc(-c3ccccc3C(F)(F)F)ccc2[C@]1(O)c1cccc(O)c1 :: 7.19

Consider now this further molecule.
input: What does the data say about its pKi? Entry: CN(C)C[C@H]1CCc2cc(-c3ccccc3Cl)ccc2[C@]1(O)c1cccc(O)c1
output: 6.80

----------
Hi there, I'd appreciate the recorded Ki for every entry that follows.
# system-name: Delta-type opioid receptor (Homo sapiens, UniProt P41143)
# measurement-protocol: Displacement of [3H]DPDPE from human DOR expressed in CHO cell membranes after 60 mins

COc1ccc(-c2ccc3c(c2)CC[C@H](CN(C)C)[C@@]3(O)c2cccc(OC)c2)cc1 :: > 10 µM
COc1cccc([C@@]2(O)c3ccc(-c4ccc(Cl)cc4)cc3CC[C@@H]2CN(C)C)c1 :: > 10 µM
COc1ccccc1-c1ccc2c(c1)CC[C@H](CN(C)C)[C@@]2(O)c1cccc(O)c1 :: 0.0047 µM
Cc1ccccc1-c1ccc2c(c1)CC[C@H](CN(C)C)[C@@]2(O)c1cccc(O)c1 :: 0.14 µM

Quick batch: Ki for everything below.
1. COc1cccc(-c2ccc3c(c2)CC[C@H](CN(C)C)[C@@]3(O)c2cccc(OC)c2)c1
2. COc1cccc([C@@]2(O)CCCC[C@@H]2CN(C)C)c1 (racemic) [(R,R)-TRAMADOL]
3. CN(C)C[C@H]1CCc2cc(-c3ccc(C(F)(F)F)cc3)ccc2[C@]1(O)c1cccc(O)c1
4. CN(C)C[C@H]1CCc2cc(-c3ccccc3OC(F)(F)F)ccc2[C@]1(O)c1cccc(O)c1
5. CN(C)C[C@H]1CCCC[C@]1(O)c1cccc(O)c1 (racemic)

output:
> 10 µM
> 10 µM
> 10 µM
0.26 µM
> 10 µM

----------
# system-name: Mu-type opioid receptor (Homo sapiens)
# Sequence (P35372 whole entry): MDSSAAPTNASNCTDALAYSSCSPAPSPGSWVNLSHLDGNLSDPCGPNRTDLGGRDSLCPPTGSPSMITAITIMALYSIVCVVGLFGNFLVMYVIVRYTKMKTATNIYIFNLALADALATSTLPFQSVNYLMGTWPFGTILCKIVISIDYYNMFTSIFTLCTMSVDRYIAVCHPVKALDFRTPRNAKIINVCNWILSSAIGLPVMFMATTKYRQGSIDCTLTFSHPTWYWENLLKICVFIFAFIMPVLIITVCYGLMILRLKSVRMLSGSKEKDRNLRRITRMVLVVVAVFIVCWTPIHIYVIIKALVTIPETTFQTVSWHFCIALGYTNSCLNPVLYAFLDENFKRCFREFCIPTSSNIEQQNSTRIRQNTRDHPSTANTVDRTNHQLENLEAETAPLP
# measurement-protocol: Displacement of [3H]DAMGO from human MOR expressed in CHO cell membranes after 60 mins
# experimental-setup: cho
pKi: −log10 of the molar value.
quantity-kind: pKi

input: Recorded pKi for COc1ccccc1-c1ccc2c(c1)CCC(CN(C)C)C2(O)c1cccc(O)c1 (single isomer, unassigned; (+)) , please?
output: < 5.00

----------
# system-name: Delta-type opioid receptor (Homo sapiens)
# measurement-protocol: Agonist activity at human DOR expressed in CHO cell membranes after 60 mins by [35S]GTP-gamma-S binding assay
quantity-kind: Emax (%)
Numbers only, in %.

COc1ccccc1-c1ccc2c(c1)CCC(CN(C)C)C2(O)c1cccc(O)c1 (single isomer, unassigned; (-)) :: 205

Give Emax for all compounds that follow.
1. CN(C)C[C@H]1CCc2cc(-c3ccccc3OC(F)(F)F)ccc2[C@]1(O)c1cccc(O)c1
2. CN(C)C[C@H]1CCc2cc(-c3ccccc3Cl)ccc2[C@]1(O)c1cccc(O)c1
3. COc1ccccc1-c1ccc2c(c1)CC[C@H](CN(C)C)[C@@]2(O)c1cccc(O)c1
4. Cc1ccccc1-c1ccc2c(c1)CC[C@H](CN(C)C)[C@@]2(O)c1cccc(O)c1
5. CN(C)C[C@H]1CCc2cc(-c3ccccc3F)ccc2[C@]1(O)c1cccc(O)c1

output:
215
216
230
199
172

input: Lab note: need Emax for CN(C)C[C@H]1CCc2cc(-c3ccccc3C(F)(F)F)ccc2[C@]1(O)c1cccc(O)c1 on Delta-type opioid receptor (Homo sapiens), anyone have it?
output: 217
